Measured values drawn from patent US10745400B2 for this set.

# Target of assay: ALK2 (Q207D) (Homo sapiens, UniProt Q04771, Q207D)
# Sequence (Q04771 21-509 Q207D, species assumed): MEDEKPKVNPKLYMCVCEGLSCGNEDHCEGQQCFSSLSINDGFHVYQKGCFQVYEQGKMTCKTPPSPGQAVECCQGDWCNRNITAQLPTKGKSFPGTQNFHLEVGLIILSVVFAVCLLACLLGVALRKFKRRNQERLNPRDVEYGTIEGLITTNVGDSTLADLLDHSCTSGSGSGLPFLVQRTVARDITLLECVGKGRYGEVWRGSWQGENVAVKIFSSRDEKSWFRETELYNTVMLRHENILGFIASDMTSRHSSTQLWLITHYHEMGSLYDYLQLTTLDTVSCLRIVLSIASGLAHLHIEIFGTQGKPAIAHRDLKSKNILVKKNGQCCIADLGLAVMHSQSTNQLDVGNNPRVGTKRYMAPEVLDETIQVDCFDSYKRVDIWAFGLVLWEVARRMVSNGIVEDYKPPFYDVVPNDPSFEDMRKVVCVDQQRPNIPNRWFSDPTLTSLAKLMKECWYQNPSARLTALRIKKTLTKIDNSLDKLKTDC
# Assay notes: Kinase assay (33P-ATP filter-binding), ALK2 Q207D
# Experimental conditions: Q207D mutant, 20 mM; read-out: Kinase Selectivity ALK2 (Q207D, 20 mM)
Assay metric: pIC50
Numbers only, as −log10 of the molar value.

Some entries whose results are on file:
Notebook: Cc1cc(-c2cnc3cc(-c4ccc(N5CCC6(CCCNC6)C5)cc4)ccn23)c2cc(F)cc(F)c2n1 (centres unmarked) , pIC50 read as 6.70

Noted for c1cc(-c2cnc3cc(-c4ccc(C5CNCCN5)cc4)ccn23)ccn1 (centres unmarked) : its pIC50 reads 7.46

Looking up NS(=O)(=O)c1ccc(-c2cnc3cc(-c4ccc(C5CNCCN5)cc4)ccn23)c2ccccc12 (centres unmarked) , I see its pIC50 listed as 8.24

# pIC50 of `Cc1cc(-c2cnc3cc(N4CC5(CCNCC5)C4)ccn23)c2cc(F)cc(F)c2n1` = 6.89

pIC50 recorded for this compound, `Cc1cc(-c2cnc3cc(-c4ccc(N5CCC6(CCNC6)CC5)cc4)ccn23)c2cc(F)cc(F)c2n1` , is 6.13

# per-item lookup of pIC50; items listed below
1. Cc1cc(-c2cnc3cc(-c4ccc(C5C[C@@H](C)N[C@@H](C)C5)cc4)ccn23)c2cc(F)cc(F)c2n1 (some centres unmarked)
2. CN1CCN(c2ccc(-c3ccn4c(-c5ccnc6ncccc56)cnc4c3)cc2)CC1

1. 7.17
2. 7.11

Working through the 5 compounds below one at a time, give pIC50 for each.
1. Cc1cc(-c2cnc3cc(-c4ccc(N5CCC6(CCCNC6)CC5)cc4)ccn23)c2cc(F)cc(F)c2n1
2. Cc1cc(-c2cnc3cc(-c4ccc(N5CCC6(CCCCN6)CC5)cc4)ccn23)c2cc(F)cc(F)c2n1
3. O=S(=O)(F)Oc1ccc(-c2cnc3cc(-c4ccc(N5CCOCC5)cc4)ccn23)c2ccccc12
4. Cc1cc(-c2cnc3cc(-c4ccc(N5CCNC(C)(C)C5)cc4)ccn23)c2cc(F)cc(F)c2n1
5. Cc1cc(-c2cnc3cc(-c4ccc(N5CCC6(CCNCC6)C5)cc4)ccn23)c2cc(F)cc(F)c2n1

1. 6.00
2. 6.77
3. 4.99
4. 7.16
5. 5.76

Please report pIC50 for every entry that follows.
1. Cc1cc(-c2cnc3cc(-c4ccc(C5COC6(CCNC6)CN5)cc4)ccn23)c2cc(F)cc(F)c2n1 (centres unmarked)
2. Cc1cc(-c2cnc3cc(-c4ccc(N5CCCC6(CCCN6)C5)cc4)ccn23)c2cc(F)cc(F)c2n1 (centres unmarked)
3. Cc1cc(-c2cnc3cc(-c4ccc(N5CCN(C)CC5)cc4)ccn23)c2cccnc2n1
4. Cc1cc(-c2cnc3cc(-c4ccc(N5CCNC6(CCC6)C5)cc4)ccn23)c2cc(F)cc(F)c2n1
5. c1ncc2scc(-c3cnc4cc(-c5ccc(C6CNCCN6)cc5)ccn34)c2n1 (centres unmarked)

6.66
6.94
7.10
7.62
7.18

Record Cc1cc(-c2cnc3cc(-c4ccc(C5COC6(CCNCC6)CN5)cc4)ccn23)c2cc(F)cc(F)c2n1 (centres unmarked) . Reported pIC50: 8.20

###

# Assay notes: Intrinsic clearance, mouse
# Assay type: in vitro ADME
# Experimental conditions: mouse, read-out: Intrinsic Clearance Mouse
Record form. Attribute: CLint scaled. Fill in for each entry.

CLint scaled recorded for this molecule, `Cc1cc(-c2cnc3cc(N4CC5(CCNCC5)C4)ccn23)c2cc(F)cc(F)c2n1` , is < 49.5 mL/min/kg

The molecule identified as Cc1cc(-c2cnc3cc(-c4ccc(C5COC(C)CN5)cc4)ccn23)c2cc(F)ccc2n1 (stereo not drawn) registered its CLint scaled at 66.3 mL/min/kg

Next:
For this molecule ( c1cnc2c(-c3cnc4cc(-c5ccc(C6CNCCN6)cc5)ccn34)ccnc2c1 (stereo not drawn) ), measured CLint scaled is < 49.5 mL/min/kg

###

Could you please report measured IC50 for the items listed next?
# Target of assay: ALK2/ACVR1 (Homo sapiens, UniProt Q04771)
# Sequence (Q04771 21-509): as the sequence (Q04771 21-509 Q207D, species assumed) above, with D187Q counted along it
# Assay notes: Kinase assay (33P-ATP filter-binding), ALK2
# Format: biochemical
# Experimental conditions: 20 mM; read-out: Kinase Selectivity ALK2/ACVR1 (20 mM)
Give bare numbers, in nM.

// solved cases for IC50 follow
Summary for this molecule, `Cc1cc(-c2cnc3cc(-c4ccc(N5CCC6(CCCNC6)CC5)cc4)ccn23)c2cc(F)cc(F)c2n1` : IC50 is 1090

Reported IC50 for Cc1cc(-c2cnc3cc(-c4ccc(C5COC6(CCNC6)CN5)cc4)ccn23)c2cc(F)cc(F)c2n1 (stereo not shown) was 29.1

Notebook: Cc1cc(-c2cnc3cc(-c4ccc(N5CCC6(CCCNC6)C5)cc4)ccn23)c2cc(F)cc(F)c2n1 (stereo not shown) , IC50 read as 171

Here is the next item to consider.
The value of IC50 measured for the molecule `Cc1cc(-c2cnc3cc(-c4ccc(N5CCC6(CCNCC6)C5)cc4)ccn23)c2cc(F)cc(F)c2n1` turned out to be 2370

###

# Tested on: BMP-responsive C2C12 mouse myoblast cells stimulated with BMP4
# Assay notes: BMP4 cell assay (Id1 promoter-firefly luciferase reporter)
# Assay type: cell-based
# Experimental conditions: Mus musculus, C2C12, C2C12 cells, BMP4 50 ng/mL, overnight
Assay metric: pIC50
Give bare numbers, as −log10 of the molar value.

Entry under test: Cc1cc(-c2cnc3cc(-c4ccc(C5CNCCN5)cc4)ccn23)c2ccccc2n1 (centres unmarked) [Compound 12] . Its pIC50 was 7.87

Now look at this entry.
# compound Cc1cc(-c2cnc3cc(-c4ccc(C5CNCCN5)cc4)ccn23)c2cc(F)ccc2n1 (centres unmarked) [Compound 17] ; its pIC50 = 7.53

###

# Target of assay: UniProt:Q13873
# Sequence (Q13873 27-1038): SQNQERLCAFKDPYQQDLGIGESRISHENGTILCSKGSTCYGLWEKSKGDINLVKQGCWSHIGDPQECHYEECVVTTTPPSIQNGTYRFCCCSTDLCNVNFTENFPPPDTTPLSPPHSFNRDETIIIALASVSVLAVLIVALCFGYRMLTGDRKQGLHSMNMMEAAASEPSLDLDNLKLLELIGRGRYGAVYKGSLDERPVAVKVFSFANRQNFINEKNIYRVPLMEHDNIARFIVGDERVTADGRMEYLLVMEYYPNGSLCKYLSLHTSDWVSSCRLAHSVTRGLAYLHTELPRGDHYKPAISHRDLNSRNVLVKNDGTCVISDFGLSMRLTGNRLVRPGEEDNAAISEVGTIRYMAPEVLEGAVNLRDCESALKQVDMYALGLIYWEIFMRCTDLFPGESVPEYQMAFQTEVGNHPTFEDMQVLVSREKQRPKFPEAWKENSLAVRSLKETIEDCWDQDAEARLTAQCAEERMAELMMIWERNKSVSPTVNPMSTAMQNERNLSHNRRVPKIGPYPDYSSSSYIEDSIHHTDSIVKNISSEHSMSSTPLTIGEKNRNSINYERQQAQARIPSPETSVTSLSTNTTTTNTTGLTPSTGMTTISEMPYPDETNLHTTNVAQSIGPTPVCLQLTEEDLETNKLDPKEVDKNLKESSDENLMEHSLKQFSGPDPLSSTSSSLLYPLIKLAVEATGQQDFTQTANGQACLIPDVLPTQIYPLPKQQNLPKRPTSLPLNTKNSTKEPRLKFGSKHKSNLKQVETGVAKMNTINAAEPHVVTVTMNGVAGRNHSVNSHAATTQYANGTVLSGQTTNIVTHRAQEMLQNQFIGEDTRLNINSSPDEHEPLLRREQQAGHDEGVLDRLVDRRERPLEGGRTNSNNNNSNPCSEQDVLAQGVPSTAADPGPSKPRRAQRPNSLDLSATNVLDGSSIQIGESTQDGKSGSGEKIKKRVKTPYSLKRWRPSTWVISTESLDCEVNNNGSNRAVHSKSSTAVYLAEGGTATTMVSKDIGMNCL
pIC50: −log10 of the molar value.
Assay metric: pIC50

Known pIC50 results, listed for orientation:
GET /value?item= Cc1cc(-c2cnc3cc(-c4ccc(C5CNCCN5)cc4)ccn23)c2cc(F)ccc2n1 (stereo not shown) &field=pIC50 returns < 4.00

Form field pIC50, entry NS(=O)(=O)c1ccc(-c2cnc3cc(-c4ccc(C5CNCCN5)cc4)ccn23)c2ccccc12 (stereo not shown) : < 4.00

Value of pIC50 reported for the compound Cc1cc(-c2cnc3cc(-c4ccc(C5COC6(CCNC6)CN5)cc4)ccn23)c2cc(F)cc(F)c2n1 (stereo not shown) is < 4.00

More entries:
Entry c1cnc2nccc(-c3cnc4cc(-c5ccc(C6CNCCN6)cc5)ccn34)c2c1 (stereo not shown) — recorded pIC50 = 4.26

###

# Target of assay: ALK3/BMPR1A (Homo sapiens, UniProt P36894)
# Sequence (P36894 24-532): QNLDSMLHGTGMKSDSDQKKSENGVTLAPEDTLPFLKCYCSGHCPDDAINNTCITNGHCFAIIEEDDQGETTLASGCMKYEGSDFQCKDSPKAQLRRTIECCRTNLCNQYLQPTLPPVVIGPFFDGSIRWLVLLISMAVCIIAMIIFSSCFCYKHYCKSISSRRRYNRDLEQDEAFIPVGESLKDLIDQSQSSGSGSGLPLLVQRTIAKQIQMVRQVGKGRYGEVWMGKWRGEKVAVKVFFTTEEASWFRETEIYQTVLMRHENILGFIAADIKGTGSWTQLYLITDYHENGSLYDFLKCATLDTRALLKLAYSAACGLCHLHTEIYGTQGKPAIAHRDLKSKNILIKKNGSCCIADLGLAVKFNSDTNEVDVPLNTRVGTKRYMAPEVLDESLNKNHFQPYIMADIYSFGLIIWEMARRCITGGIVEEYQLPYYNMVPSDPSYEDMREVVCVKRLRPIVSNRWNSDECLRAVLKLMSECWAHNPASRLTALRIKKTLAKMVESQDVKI
# Assay notes: Kinase assay (33P-ATP filter-binding), ALK3
# Type: biochemical
# Experimental: The kinase assays were carried out briefly as follows. Substrate was prepared in Base Reaction Buffer (20 mM Hepes (pH 7.5), 10 mM MgCl2, 1 mM EGTA, 0.02% Brij35, 0.02 mg/ml BSA, 0.1 mM Na3VO4, 2 mM DTT, 1% DMSO). The indicated kinases was delivered into the substrate solution and allowed to gently mix. […] After 2 hours, the reactions were spotted onto P81 ion exchange paper and the kinase activity is detected by the filter-binding method.
Assay metric: IC50 (µM)
One number for each entry, in µM.

IC50 in this record for `O=S(=O)(F)Oc1ccc(-c2cnc3cc(-c4ccc(N5CCOCC5)cc4)ccn23)c2ccccc12` : 23.1
